species on record: Mus musculus; test: Biodistribution of [225Ac]-labeled compound in normal mice liver after 4 hr; type: ADME, organism-based; conditions: in vivo
METRIC: ID/g (%)
Answer format: numeric, % implied, no suffix.

Use these answered entries as a reference point.
O=C(O)CN1CCN(CC(=O)O)CCN(CC(=O)O)CCN(CC(=O)O)CCN(CC(=O)O)CC1; 16.4
O=C(O)CN1CCN(CC(=O)O)CCN(CC(=O)O)C(Cc2ccc([N+](=O)[O-])cc2)CN(CC(=O)O)CC1 (centres undefined); 2.04
O=C(O)CN(CC(=O)O)[C@H](Cc1ccc([N+](=O)[O-])cc1)CN(CC(=O)O)[C@@H]1CCCC[C@H]1N(CC(=O)O)CC(=O)O; 12.9

Here is another compound to look at.
Entry under review: "O=C(O)CN1CCN(CC(=O)O)CCN(CC(=O)O)CCN(CC(=O)O)CCN(CC(=O)O)CCN(CC(=O)O)CC1" . Reported ID/g?
0.23
